All values here come from patent US8673882B2.

test_target: recombinant human ATX (Homo sapiens, UniProt Q13822)
measurement_notes: Autotaxin inhibition screening assay (FS-3 FRET substrate)
Assay type: biochemical
measurement_parameters: 10 μM compound; 2 nM recombinant human ATX; 1 μM FS-3; 2 h, 37° C.; read-out: ATX Activity, % control (10 μM)
Give remaining activity at 10 µM for every item shown.
Number first, unit second: that is the form wanted.

// query Bench note: what remaining activity at 10 µM did CCCCCCCCCCCCCCCCS(=O)(=O)Nc1ccc(CP(=O)(O)O)cc1 [Compound 4] show?
// result 24.1%

// query What about CCCCCCCCCCCCCCCc1ccc(C(F)P(=O)(O)O)cc1 (stereo not drawn) [Compound 41] ?
// result 42.3%

// query What about CCCCCCCCCCCCCCCc1ccc(COP(=O)(O)O)cc1 [Compound 45, 4-pentadecylbenzyl dihydrogen phosphate] ?
// result 85.2%
